biological target: T1, NHP-OTV16 peptide (SEQ ID NO:5) (Macaca mulatta, disulfide 1-18); assay: peptide ELISA of B-cell clone supernatant
T1 construct: cyclic
T1 peptide: Propargyl-CYRPVDGLPPFKMEKTEC-NH2
Bridge positions count the residues as written; N and C are the ends. * marks the point of attachment. Propargyl = C#CC*
reported-property: binding result

binder	reported-property	result
33B6-1 (antibody, V domains shown, Recombinant rabbit IgG with rabbit kappa light chain, made in HEK cells; Also tested as B-cell clone supernatant; also called monoclonal antibody 33B6-1) VH: QSLEESGGRLVTPGTPLTLTCTASGLSLSSYDMNWVRQAPGKGLEYIGFINTRGSAYYASWATGRFTISRTSTTVDLTMTSPTTEDTATYFCARDIPDWDIGHVFDLWGPGTLVTVSS VL: AYDMTQTPASVEVTMGGAVTIKCQASQSISNELSWYQQKPGQRPRLLIYQASALASGVPSRFKGSGYGTQFTLTISDLECADAATYYCQQGYTSNNIVNAFGGGTEVVVK	binding result	binds
24C6-1 (antibody, V domains shown, Recombinant rabbit IgG with rabbit kappa light chain, made in HEK cells; Also tested as B-cell clone supernatant; also called monoclonal antibody 24C6-1) VH: QSVEESGGRLVTPGTPLTLTCTVSGFSLSTYAMAWVRQAPGKGLEWIGIIGQSSKTYYAIWAKGRFTISRTSTTVDLKIPSPTTEDTATYFCARGSTYVLDMWGPGTLVTVSL VL: AVVMTQTASPVSAAVGGTVTIKCQASQSISSYLAWYQQKPGQPPKLLIADASKLVSGVPSRFKGSGSGTEFTLTISDLECADAATYYCQNYYGSSDFGTFGGGTEVVVE	binding result	binds
69H7-1 (antibody, V domains shown, Recombinant rabbit IgG with rabbit kappa light chain, made in HEK cells; Also tested as B-cell clone supernatant; also called monoclonal antibody 69H7-1) VH: QSLEESGGRLVTPGTPLTLTCTASGLSLSRYDMNWVRQAPGKGLEYIGFINTRGSTYYATWTTGRFTISRTSTTVDLTMTSPTTEDTATYFCARDIPDWDIGHVFDLWGPGTLVTVSS VL: AYDMTQTPASVSGAVGGTVTINCQASQSISNELSWYQQKPGQRPRLLIYQASTLASGVPSRFKGSGYGTQFTLTISDLECADAATYYCQQGYTSNNIVNAFGGGTEVVVK	binding result	binds

The measurements presented in this section are drawn from patent US20240052027A1.
